Kindly supply the reported self-cleavage values for the records listed here.
B1: CPEB3 Ribozyme (parent)
chain: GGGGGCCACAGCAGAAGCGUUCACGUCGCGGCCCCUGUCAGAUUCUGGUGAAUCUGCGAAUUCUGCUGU

variants of: B1; test: self-cleavage, relative activity (ratio to wild type); higher = more cleavage; co-transcriptional
Response field accepts a number only; no unit should be typed.

Problem: What value of self-cleavage has been recorded for this entry: C6G C34A
Result: 0.0671

Problem: What value of self-cleavage has been recorded for this entry: G1C U44C
Result: 0.232

Problem: What value of self-cleavage has been recorded for this entry: C12U G19U
Result: 0.339

Problem: What value of self-cleavage has been recorded for this entry: C12U C35U
Result: 0.947

Problem: What value of self-cleavage has been recorded for this entry: G1A G3A
Result: 0.107

Problem: What value of self-cleavage has been recorded for this entry: A15U G17C
Result: 0.171

Problem: What value of self-cleavage has been recorded for this entry: C7U G11A
Result: 0.816

Problem: What value of self-cleavage has been recorded for this entry: U36G A60G
Result: 0.209

Problem: What value of self-cleavage has been recorded for this entry: G41C G50C
Result: 0.325

Problem: What value of self-cleavage has been recorded for this entry: G31U U36C
Result: 0.516

Problem: What value of self-cleavage has been recorded for this entry: G3U G11U
Result: 0.0744

Problem: What value of self-cleavage has been recorded for this entry: G50U U62C
Result: 0.866

Problem: What value of self-cleavage has been recorded for this entry: G4U G50C
Result: 0.764

Problem: What value of self-cleavage has been recorded for this entry: U38G U62A
Result: 0.291

Problem: What value of self-cleavage has been recorded for this entry: G11C C24G
Result: 0.114

Problem: What value of self-cleavage has been recorded for this entry: G28U U62C
Result: 0.127

Problem: What value of self-cleavage has been recorded for this entry: U49A U67G
Result: 1.03

Problem: What value of self-cleavage has been recorded for this entry: U36G U62G
Result: 0.238

Problem: What value of self-cleavage has been recorded for this entry: G11A G31A
Result: 0.838

Problem: What value of self-cleavage has been recorded for this entry: A52G U61G
Result: 0.861

Problem: What value of self-cleavage has been recorded for this entry: G4A G14A
Result: 0.401

Problem: What value of self-cleavage has been recorded for this entry: A10U G68A
Result: 1.05

Problem: What value of self-cleavage has been recorded for this entry: G3U C9U
Result: 0.521

Problem: What value of self-cleavage has been recorded for this entry: C33U C57G
Result: 0.247

Problem: What value of self-cleavage has been recorded for this entry: G28U C45G
Result: 0.162

Problem: What value of self-cleavage has been recorded for this entry: G5U C12G
Result: 0.1

Problem: What value of self-cleavage has been recorded for this entry: G47A G68C
Result: 1

Problem: What value of self-cleavage has been recorded for this entry: G14U G19U
Result: 0.17

Problem: What value of self-cleavage has been recorded for this entry: G25C U64C
Result: 0.181

Problem: What value of self-cleavage has been recorded for this entry: C6A C12U
Result: 0.581

Problem: What value of self-cleavage has been recorded for this entry: U38A A42G
Result: 0.755

Problem: What value of self-cleavage has been recorded for this entry: G37U G48C
Result: 0.326

Problem: What value of self-cleavage has been recorded for this entry: U20A U36A
Result: 0.158

Problem: What value of self-cleavage has been recorded for this entry: A8U A10G
Result: 0.937

Problem: What value of self-cleavage has been recorded for this entry: C29G G30U
Result: 0.219

Problem: What value of self-cleavage has been recorded for this entry: C12U C66U
Result: 0.798

Problem: What value of self-cleavage has been recorded for this entry: C18A U49C
Result: 0.195

Problem: What value of self-cleavage has been recorded for this entry: G41U G48A
Result: 0.998

Problem: What value of self-cleavage has been recorded for this entry: G19U U49A
Result: 0.639

Problem: What value of self-cleavage has been recorded for this entry: U44C U46G
Result: 0.98

Problem: What value of self-cleavage has been recorded for this entry: A16U U69G
Result: 0.972

Problem: What value of self-cleavage has been recorded for this entry: A8G U53A
Result: 0.591

Problem: What value of self-cleavage has been recorded for this entry: G4A G28A
Result: 0.117

Problem: What value of self-cleavage has been recorded for this entry: C27G U36C
Result: 0.168

Problem: What value of self-cleavage has been recorded for this entry: A10U G37C
Result: 0.3

Problem: What value of self-cleavage has been recorded for this entry: A13U C22U
Result: 0.171
